- target under test: T1, 4H850-bA
- T1 chain: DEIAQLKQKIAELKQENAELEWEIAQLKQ
- assay summary: two-hybrid library CCNG1;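 further: natural log of median RNA to DNA barcode read ratio; higher means stronger binding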
readout: interaction score
Please state the value as a number alone, without comment.

# input # return recorded interaction score for entry DEIAQLKQEIAELKQKIAELKWENAQLEQ [4H619-bA]
# output -0.446

---
# input # return recorded interaction score for entry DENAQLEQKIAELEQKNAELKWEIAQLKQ [4H1338-bA]
# output 1.4

# input # return recorded interaction score for entry DEIAQLKQEIAELEQKNAELKWEIAQLKQ [4H570-bA]
# output 1.98

# input # return recorded interaction score for entry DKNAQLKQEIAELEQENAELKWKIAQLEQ [4H3613-bA]
# output 0.586

# input # return recorded interaction score for entry DKNAQLKQKIAELEQENAELEWEIAQLKQ [4H3858-bA]
# output -0.964

# input # return recorded interaction score for entry DKNAQLKQEIAELEQKNAELEWKIAQLKQ [4H3638-bA]
# output 0.728

# input # return recorded interaction score for entry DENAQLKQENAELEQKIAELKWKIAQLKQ [4H1710-bA]
# output 0.0118

# input # return recorded interaction score for entry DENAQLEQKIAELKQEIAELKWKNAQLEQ [4H1359-bA]
# output -0.751

# input # return recorded interaction score for entry DKNQELKKKNEELKRKIWELKKEIQELER [4H4073-bH]
# output -2.46
